target: N-terminally GST-tagged human full length recombinant Mps-1 kinase (Homo sapiens); construct: N-terminally GST-tagged human full length recombinant Mps-1 kinase; purchased Invitrogen, Karslruhe, Germany PV4071; assay: Mps-1 kinase assay (TR-FRET); format: biochemical; conditions: Mps1 IC50 [nM], 10 μM ATP, 1 μM peptide substrate, 60 min at 22° C.
Sequence (P33981 whole entry): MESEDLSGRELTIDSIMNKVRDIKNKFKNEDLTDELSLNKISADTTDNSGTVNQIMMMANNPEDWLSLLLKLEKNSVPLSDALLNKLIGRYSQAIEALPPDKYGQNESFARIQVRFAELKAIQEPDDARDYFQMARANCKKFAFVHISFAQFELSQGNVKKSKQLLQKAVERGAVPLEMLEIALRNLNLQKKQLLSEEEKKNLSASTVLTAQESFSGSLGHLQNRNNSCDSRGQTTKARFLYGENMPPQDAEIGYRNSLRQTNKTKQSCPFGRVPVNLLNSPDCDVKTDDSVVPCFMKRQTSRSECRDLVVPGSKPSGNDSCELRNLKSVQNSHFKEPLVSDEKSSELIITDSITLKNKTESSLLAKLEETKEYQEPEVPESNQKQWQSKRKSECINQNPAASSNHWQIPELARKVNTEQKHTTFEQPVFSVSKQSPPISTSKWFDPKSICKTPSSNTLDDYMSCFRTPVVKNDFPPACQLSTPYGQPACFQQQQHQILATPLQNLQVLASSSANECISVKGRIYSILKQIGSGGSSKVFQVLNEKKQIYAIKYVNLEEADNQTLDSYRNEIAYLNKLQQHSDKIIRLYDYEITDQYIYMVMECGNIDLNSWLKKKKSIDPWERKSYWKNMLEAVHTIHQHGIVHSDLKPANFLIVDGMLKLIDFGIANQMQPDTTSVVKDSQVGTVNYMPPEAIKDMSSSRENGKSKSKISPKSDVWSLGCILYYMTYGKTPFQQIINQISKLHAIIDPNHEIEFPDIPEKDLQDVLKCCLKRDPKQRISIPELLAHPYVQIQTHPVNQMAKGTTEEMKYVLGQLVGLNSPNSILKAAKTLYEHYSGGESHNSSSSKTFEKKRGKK
Parameter Measured: IC50 (nM)
One number for each entry, in nM.

Take each entry in turn and give its IC50.
1. Cc1cc(-c2cnc3c(NCCC(F)(F)F)cc(Oc4cccc(F)c4)nn23)ccc1C(=O)NCC(C)C [Example 557]
2. Cc1cc(-c2cnc3c(NCCC(F)(F)F)cc(Oc4cccc5c4CCN(C)C5)nn23)ccc1C(=O)NC1CC1 [Example 469]
3. Cc1cc(-c2cnc3c(NCC4CCSCC4)cc(Sc4cccc(O)c4)nn23)ccc1C(=O)NC1CC1 [Example 287]
4. Cc1cc(-c2cnc3c(NCCN(C)C)cc(Oc4cccnc4)nn23)ccc1C(=O)NC1CC1 [Example 524]

1. 2.2
2. 1.7
3. 0.3
4. 2.3
